Listed molecules paired with reported T/C
Tested on: BDF1 mice, P388 leukemia ip, median survival T/C
Assay Info: NCI In Vivo Anticancer Drug Screen. Data for tumor model P388 Leukemia (intraperitoneal) in B6D2F1 (BDF1) mice
Measurement Context: endpoint: median survival time; dose: 20.0 mg/kg/injection; schedule: Q04DX003 (ip); vehicle: saline; higher = longer survival
Inconclusive results and toxic doses are left out.

Molecule: CC(=O)OS(C)(=O)=O
Assay Endpoint: T/C
Recorded Value: 100 % of control
//
Molecule: CC(C#N)N(C)C (stereo not given)
Assay Endpoint: T/C
Recorded Value: 91 % of control
//
Molecule: [NH-]S(=O)(=O)O.[NH-]S(=O)(=O)O.[NH2-].[NH2-].[Pt+4]
Assay Endpoint: T/C
Recorded Value: 100 % of control
//
Molecule: COc1cc(C(=O)O)c2c(c1C)OC(=O)c1c(C)cc(O)c(C=O)c1O2
Assay Endpoint: T/C
Recorded Value: 115 % of control

Pending molecule:
INPUT: Requested read-out: T/C. Entry: CN(C)CC#N
OUTPUT: 91 % of control
